Values from patent US20220089776A1

Consider the following binders; for each one, report its pKd.
# target.entity: T1, human blood protein factor XII (FXII) (human, UniProt P00748 20-615)
# T1 construct: mature; Single-chain zymogen as it circulates in plasma; also called human FXII; plasma-derived FXII
# T1 sequence (looked up): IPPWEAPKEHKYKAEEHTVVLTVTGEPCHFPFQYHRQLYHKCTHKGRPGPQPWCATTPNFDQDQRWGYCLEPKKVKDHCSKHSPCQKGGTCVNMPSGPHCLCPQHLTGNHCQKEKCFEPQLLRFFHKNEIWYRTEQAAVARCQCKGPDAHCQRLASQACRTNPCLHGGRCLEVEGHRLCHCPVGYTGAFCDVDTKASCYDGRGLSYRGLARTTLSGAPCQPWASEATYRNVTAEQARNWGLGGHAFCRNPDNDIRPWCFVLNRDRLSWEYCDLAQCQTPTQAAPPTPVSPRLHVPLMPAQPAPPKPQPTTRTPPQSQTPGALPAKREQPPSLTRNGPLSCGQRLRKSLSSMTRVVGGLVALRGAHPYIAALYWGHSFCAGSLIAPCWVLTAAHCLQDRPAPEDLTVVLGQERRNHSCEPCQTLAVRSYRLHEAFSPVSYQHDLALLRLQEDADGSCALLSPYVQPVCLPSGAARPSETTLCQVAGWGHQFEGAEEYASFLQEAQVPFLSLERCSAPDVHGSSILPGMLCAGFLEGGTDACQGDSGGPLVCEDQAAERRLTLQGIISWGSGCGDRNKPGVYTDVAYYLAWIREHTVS
# test.name: BLI (Octet RED96), antibody on anti-human Fc biosensors, antigen in solution, 1:1 fit
# Description: Multi-concentration kinetic experiments were performed on the Octet RED96 system (ForteBio). Anti-human Fc biosensors (ForteBio) were hydrated in sample diluent (0.1% BSA in PBS and 0.02% Tween 20) and preconditioned in pH 1.9 Glycine. Antigen was diluted by a 7-point, 3-fold serial dilution starting at 200 nM with sample diluent. Antibodies were diluted to 1μg/ml with sample diluent and then immobilized onto anti-human Fc biosensors. […]
Formally, pKd is defined as -log10 of the concentration c, with c in mol/L.

Look up pKd for this binder: humanized 5C12 antibody HC2 + LC1 (PP13896) (antibody, human IgG4 S228P, kappa, V domains shown, Human IgG4 (S241P hinge modified), expressed in HEK293; also called H7881 + L7880) VH: DVQLQESGPGLVKPSQTLSLTCTVTGYSITSGYSWHWIRQHPGKGLEWMGYIQYSGNTNSNPSLKSRVTISRDTSKNQFSLKLSSVTAADTAVYYCARWGSFDYWGQGTLVTVSS VL: EIVLTQSPATLSLSPGERATLSCRASSSVNYLHWYQQKPGQAPRRLIYDTSKLATGIPARFSGSGSGTDYTLTISSLEPEDFAVYYCQQWSGNPPTFGGGTKVEIKR
9.36

Next: humanized 5C12 antibody HC3 + LC3 (PP13901) (antibody, human IgG4 S228P, kappa, V domains shown, Human IgG4 (S241P hinge modified), expressed in HEK293; also called H7882 + L7882) VH: DVQLQESGPGLVKPSETLSLTCTVSGYSITSGYSWHWIRQPPGKGLEWIGYIQYSGNTNSNPSLKSRVTISRDTSKNQFSLRLSSVTAADTAVYYCARWGSFDYWGQGTMVTVSS VL: DIVLTQTPATLSLSPGERATLSCRASSSVNYLHWYQQKPGQAPKRLIYDTSKLATGIPARFSGSGSGTDYTLTISSLEPEDFAVYYCQQWSGNPPTFGQGTRLEIKR
9.46

Next: humanized 5C12 antibody HC1 + LC3 (PP13895) (antibody, human IgG4 S228P, kappa, V domains shown, Human IgG4 (S241P hinge modified), expressed in HEK293; also called H7880 + L7882) VH: QVQLQESGPGLVKPSQTLSLTCTVSGYSITSGYSWHWIRQHPGKGLEWIGYIQYSGNTNSNPSLKSRVTISRDTSKNQFSLKLSSVTAADTAVYYCARWGSFDYWGQGTLVTVSS VL: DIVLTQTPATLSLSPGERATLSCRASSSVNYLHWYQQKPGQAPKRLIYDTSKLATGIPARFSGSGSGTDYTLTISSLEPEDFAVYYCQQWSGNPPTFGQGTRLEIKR
9.39
